Subject Of Test: T1, recombinant Fc-TrkB antigen (human) (human, UniProt Q16620 32-430, limits assumed)
T1 construct: Biotinylated for the ForteBio assays; also called Fc-hTrkB; human Fc-TrkB; not shown: Fc part
Assay Name: SPR (Biacore S51), Fc-hTrkB amine-coupled to CM-5 chip, IgG in flow, global 1:1 Langmuir fit
Readout Kind: koff (s⁻¹)

>>> value_observed("NVP-LFD253 (antibody, human IgG1, V domains shown, IgG with human IgG1 constant region and human kappa constant region, from transiently transfected CHO cells; also called TR127 Vh & TR137 Vk) VH: QVQLVQSGAEVKKPGASVKVSCKASGYTFTAYDMHWVRQAPGQGLEWMGWIDPNSGGTRYAQKFQGRVTMTRDTSISTAYMELSRLTSDDTAVYYCTGVTTWFAYWGQGTLVTVSS VL: DIVMTQTPLSLPVTLGQPASISCRSSQSLVHSNGNTYLSWLQQRPGQPPRLLIYKISNRFSGVPDRFSGSGAGTDFTLKISRVEAEDVGVYYCMQGTHEPYTFGQGKLEIK")
"3.25e-05"
>>> value_observed("NVP-LFC327 (antibody, human IgG1, V domains shown, IgG with human IgG1 constant region and human kappa constant region, from transiently transfected CHO cells; also called TR127 Vh & TR129 Vk) VH: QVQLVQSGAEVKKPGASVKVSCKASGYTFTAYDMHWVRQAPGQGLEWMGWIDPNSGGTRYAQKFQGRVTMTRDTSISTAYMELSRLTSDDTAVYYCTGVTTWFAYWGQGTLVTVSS VL: DIVMTQSPLSLPVTLGQPASISCRSSQSLVHSNGNTYLNWYQQKPGQPPRLLIYKISNRFSGVPDRFSGSGAGTDFTLKISRVEAEDVGVYYCMQGTHEPYTFGQGKLEIK")
"5.76e-05"
>>> value_observed("NVP-LFD254 (antibody, human IgG1, V domains shown, IgG with human IgG1 constant region and human kappa constant region, from transiently transfected CHO cells; also called TR143 Vh & TR119 Vk) VH: QVQLVQSGAEVKKPGASVKVSCKASGYTFTAYDMHWVRQAPGQGLEWMGWIDPRSGDTSYKQKFQGRVTMTRDTSISTAYMELHRLRSDDTAVYYCTGVTTWFAYWGQGTLVTVSS VL: DIVMTQTPLSLPVTLGQPASISCRSSQSLLHSNGNTYLNWYQQTPGQPPRLLIYKISNRFSGVPDRFSGSGAGTDFTLKISRVEAEDVGVYYCMQGTHVPYTFGQGKLEIK")
"1.94e-05"
>>> value_observed("NVP-LFC325 (antibody, human IgG1, V domains shown, IgG with human IgG1 constant region and human kappa constant region, from transiently transfected CHO cells; also called TR127 Vh & TR119 Vk) VH: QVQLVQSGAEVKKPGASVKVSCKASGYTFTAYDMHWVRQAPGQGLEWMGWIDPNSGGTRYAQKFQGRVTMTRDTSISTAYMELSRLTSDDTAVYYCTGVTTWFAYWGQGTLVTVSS VL: DIVMTQTPLSLPVTLGQPASISCRSSQSLLHSNGNTYLNWYQQTPGQPPRLLIYKISNRFSGVPDRFSGSGAGTDFTLKISRVEAEDVGVYYCMQGTHVPYTFGQGKLEIK")
"4.85e-05"

Data origin, for the record: patent US20110097326A1
